- assay system: DLA2 ΔCat 394 (Chlamydomonas reinhardtii, UniProt A0A2K3DW88 32-393)
- method summary: MST
measure: Kd

Kd lookup needed for UUUACGGAGAAAUUAAAACUUUAAAAAAAUUAACAUAUGACCAUGGAUC (ssRNA) [psbA 5'-UTR probe native] , thanks. 558 nM
